# Measured target: aldose reductase (AKR1B1) (Homo sapiens, UniProt P15121)
# Construct: recombinant human AKR1B1 protein (His Tag)
# Assay procedure: NADPH consumption at […] nm with DL-glyceraldehyde, recombinant enzyme
Property name: pIC50
Lab note — pIC50 values are minus log10 of concentrations in M.

INPUT: Look up and report measured pIC50 for this entry: `COc1ccc(-c2cc(=O)c3c(O)c(OC)c(OC)cc3o2)cc1O`
OUTPUT: 3.69

INPUT: Look up and report measured pIC50 for this entry: `O=C(/C=C/c1ccc(O)c(O)c1)O[C@H](Cc1ccc(O)c(O)c1)C(=O)O`
OUTPUT: 4.38
